viscosity values, listed per item
Setup conditions: 298.15 K; 101.33 kPa; Liquid; Cone and plate viscometry
± gives the expanded uncertainty stated by the source.

Some compounds with known viscosity results, for comparison:
- Compound: "CCn1cc[n+](C)c1.CS(=O)(=O)[O-] [1-ethyl-3-methylimidazolium methanesulfonate]"
  Attribute measured: "viscosity"
  Value measured: "70.5 ± 2.7 mPa·s"
- Compound: "CS(=O)(=O)[O-].Cn1cc[n+](C)c1 [1,3-dimethyl-1H-imidazolium methanesulfonate]"
  Attribute measured: "viscosity"
  Value measured: "32.9 ± 1.1 mPa·s"
- Compound: "CCCCn1cc[n+](CCCC)c1.CS(=O)(=O)[O-] [1,3-dibutyl-1H-imidazolium methanesulfonate]"
  Attribute measured: "viscosity"
  Value measured: "31.9 ± 2.4 mPa·s"

Now consider a different compound.
viscosity lookup needed for CCCCn1cc[n+](C)c1.CS(=O)(=O)[O-] [1-butyl-3-methylimidazolium methanesulfonate] , thanks. 111 ± 14 mPa·s
